Molecular target: TYRO-3 (Homo sapiens)
Sequence (Q06418 41-890): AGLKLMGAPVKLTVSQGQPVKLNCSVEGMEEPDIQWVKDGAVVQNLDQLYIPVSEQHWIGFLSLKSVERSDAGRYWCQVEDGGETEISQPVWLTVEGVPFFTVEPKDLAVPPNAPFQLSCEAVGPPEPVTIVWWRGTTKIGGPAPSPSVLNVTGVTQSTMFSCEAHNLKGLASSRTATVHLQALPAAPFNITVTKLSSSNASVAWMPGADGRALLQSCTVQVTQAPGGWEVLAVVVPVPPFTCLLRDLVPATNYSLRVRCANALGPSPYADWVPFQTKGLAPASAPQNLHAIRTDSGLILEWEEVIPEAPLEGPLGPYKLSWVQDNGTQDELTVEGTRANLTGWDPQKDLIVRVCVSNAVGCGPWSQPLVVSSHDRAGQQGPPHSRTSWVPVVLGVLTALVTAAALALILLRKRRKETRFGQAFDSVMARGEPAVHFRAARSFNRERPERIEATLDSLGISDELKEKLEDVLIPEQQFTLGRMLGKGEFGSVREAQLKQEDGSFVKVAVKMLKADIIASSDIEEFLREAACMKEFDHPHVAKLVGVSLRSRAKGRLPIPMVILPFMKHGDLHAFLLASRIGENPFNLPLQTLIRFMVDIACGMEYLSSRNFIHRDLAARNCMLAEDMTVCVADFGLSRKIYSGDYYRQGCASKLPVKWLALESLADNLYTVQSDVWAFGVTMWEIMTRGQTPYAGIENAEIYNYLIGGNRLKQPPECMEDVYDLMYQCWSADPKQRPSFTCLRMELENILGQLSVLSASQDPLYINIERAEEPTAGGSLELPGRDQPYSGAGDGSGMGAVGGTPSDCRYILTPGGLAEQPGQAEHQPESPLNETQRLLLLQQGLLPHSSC
pKd: −log10 of the molar value.
ASSAY READOUT: pKd

1) NC(=O)Nc1cc(-c2cccc(F)c2)sc1C(=O)N[C@H]1CCCNC1 :: 5.98

---

Target: AXL (Homo sapiens, UniProt P30530)
Sequence (P30530 26-894): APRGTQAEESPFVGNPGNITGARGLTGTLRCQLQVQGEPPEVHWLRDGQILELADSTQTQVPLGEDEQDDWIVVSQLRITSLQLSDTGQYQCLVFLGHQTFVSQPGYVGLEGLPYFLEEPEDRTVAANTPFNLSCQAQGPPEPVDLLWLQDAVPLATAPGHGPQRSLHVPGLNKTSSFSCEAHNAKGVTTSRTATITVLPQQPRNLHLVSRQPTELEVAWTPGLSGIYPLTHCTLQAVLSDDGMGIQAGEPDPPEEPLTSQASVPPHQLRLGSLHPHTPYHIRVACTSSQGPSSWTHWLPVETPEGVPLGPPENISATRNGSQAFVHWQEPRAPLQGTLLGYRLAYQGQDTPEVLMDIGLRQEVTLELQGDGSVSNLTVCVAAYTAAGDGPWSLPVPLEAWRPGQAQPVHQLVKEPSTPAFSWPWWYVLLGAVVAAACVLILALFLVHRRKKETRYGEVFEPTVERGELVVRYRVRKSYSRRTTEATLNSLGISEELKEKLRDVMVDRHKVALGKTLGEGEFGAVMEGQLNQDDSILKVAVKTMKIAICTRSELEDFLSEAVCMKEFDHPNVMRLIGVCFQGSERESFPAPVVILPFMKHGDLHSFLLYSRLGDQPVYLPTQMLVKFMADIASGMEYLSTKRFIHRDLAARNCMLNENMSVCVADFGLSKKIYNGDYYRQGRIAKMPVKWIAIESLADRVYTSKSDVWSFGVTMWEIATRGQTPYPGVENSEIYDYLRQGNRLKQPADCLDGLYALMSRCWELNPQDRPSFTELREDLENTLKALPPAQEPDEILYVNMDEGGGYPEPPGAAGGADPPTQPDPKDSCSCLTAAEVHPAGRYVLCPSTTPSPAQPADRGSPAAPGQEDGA
ASSAY READOUT: Kd (nM)

1. NC(=O)Nc1cc(-c2cccc(F)c2)sc1C(=O)N[C@H]1CCCNC1 [DN10764] :: 26
